Below, each entry is listed alongside its reported OD450.
Molecular target: T1, human MSLN-R2-his protein (human, UniProt Q13421 391-486)
T1 construct: Region 2 of human mesothelin, made in HEK293E cells, His-tagged; also called human MSLN-R2 protein; hMSLN-R2-his; not shown: His tag
T1 sequence (Q13421 other isoform, or with tags, fused parts or gaps): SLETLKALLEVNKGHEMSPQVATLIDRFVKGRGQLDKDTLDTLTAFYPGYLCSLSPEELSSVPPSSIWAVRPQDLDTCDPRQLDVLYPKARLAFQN
Assay: ELISA on coated MSLN-R2; no antibody (blank)
Quantity kind: OD450 (OD450)

Binder	Unit info	Numeric value
S009-F8-33.12 (antibody, human IgG1, kappa, V domains shown) VH: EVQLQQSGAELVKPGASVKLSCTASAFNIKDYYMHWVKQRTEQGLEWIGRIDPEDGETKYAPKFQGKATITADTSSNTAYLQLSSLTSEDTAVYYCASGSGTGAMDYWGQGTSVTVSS VL: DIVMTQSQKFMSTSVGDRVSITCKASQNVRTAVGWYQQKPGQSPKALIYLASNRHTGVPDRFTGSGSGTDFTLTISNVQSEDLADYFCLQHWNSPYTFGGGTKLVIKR	OD450	0.04
S009-F8-36.12 (antibody, human IgG1, kappa, V domains shown) VH: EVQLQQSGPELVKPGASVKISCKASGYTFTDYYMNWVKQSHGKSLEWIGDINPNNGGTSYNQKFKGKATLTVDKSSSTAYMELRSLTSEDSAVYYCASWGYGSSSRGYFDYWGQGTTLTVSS VL: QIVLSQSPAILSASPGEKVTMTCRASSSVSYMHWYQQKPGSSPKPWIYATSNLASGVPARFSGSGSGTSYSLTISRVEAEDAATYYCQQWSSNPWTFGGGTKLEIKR	OD450	0.04
S009-F8-18.9 (antibody, human IgG1, kappa, V domains shown) VH: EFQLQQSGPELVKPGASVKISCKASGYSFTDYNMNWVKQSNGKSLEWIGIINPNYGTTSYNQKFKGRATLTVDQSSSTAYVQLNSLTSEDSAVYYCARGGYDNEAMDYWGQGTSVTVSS VL: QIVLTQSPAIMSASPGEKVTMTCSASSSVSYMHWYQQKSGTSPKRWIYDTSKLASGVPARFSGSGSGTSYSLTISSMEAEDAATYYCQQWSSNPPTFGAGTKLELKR	OD450	0.05
S009-F8-12.13 (antibody, human IgG1, kappa, V domains shown) VH: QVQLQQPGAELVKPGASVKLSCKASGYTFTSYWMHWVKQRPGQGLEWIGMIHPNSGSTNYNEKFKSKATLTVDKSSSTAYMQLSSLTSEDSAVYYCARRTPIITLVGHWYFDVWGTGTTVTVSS VL: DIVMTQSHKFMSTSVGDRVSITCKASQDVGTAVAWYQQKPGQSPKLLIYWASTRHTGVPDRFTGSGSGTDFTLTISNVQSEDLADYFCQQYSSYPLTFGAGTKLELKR	OD450	0.05
S009-F8-13.8 (antibody, human IgG1, kappa, V domains shown) VH: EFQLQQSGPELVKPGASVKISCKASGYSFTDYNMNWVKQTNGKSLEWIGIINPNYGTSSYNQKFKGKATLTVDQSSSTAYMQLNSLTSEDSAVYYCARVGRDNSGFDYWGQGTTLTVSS VL: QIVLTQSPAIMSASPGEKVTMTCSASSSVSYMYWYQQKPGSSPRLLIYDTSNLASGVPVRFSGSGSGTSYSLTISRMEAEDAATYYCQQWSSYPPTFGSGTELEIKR	OD450	0.05
